- system.under.test: recombinant mTOR (FLAG-tagged, residues 1362-2549) (Homo sapiens, UniProt P42345)
- Sequence (P42345 1362-2549): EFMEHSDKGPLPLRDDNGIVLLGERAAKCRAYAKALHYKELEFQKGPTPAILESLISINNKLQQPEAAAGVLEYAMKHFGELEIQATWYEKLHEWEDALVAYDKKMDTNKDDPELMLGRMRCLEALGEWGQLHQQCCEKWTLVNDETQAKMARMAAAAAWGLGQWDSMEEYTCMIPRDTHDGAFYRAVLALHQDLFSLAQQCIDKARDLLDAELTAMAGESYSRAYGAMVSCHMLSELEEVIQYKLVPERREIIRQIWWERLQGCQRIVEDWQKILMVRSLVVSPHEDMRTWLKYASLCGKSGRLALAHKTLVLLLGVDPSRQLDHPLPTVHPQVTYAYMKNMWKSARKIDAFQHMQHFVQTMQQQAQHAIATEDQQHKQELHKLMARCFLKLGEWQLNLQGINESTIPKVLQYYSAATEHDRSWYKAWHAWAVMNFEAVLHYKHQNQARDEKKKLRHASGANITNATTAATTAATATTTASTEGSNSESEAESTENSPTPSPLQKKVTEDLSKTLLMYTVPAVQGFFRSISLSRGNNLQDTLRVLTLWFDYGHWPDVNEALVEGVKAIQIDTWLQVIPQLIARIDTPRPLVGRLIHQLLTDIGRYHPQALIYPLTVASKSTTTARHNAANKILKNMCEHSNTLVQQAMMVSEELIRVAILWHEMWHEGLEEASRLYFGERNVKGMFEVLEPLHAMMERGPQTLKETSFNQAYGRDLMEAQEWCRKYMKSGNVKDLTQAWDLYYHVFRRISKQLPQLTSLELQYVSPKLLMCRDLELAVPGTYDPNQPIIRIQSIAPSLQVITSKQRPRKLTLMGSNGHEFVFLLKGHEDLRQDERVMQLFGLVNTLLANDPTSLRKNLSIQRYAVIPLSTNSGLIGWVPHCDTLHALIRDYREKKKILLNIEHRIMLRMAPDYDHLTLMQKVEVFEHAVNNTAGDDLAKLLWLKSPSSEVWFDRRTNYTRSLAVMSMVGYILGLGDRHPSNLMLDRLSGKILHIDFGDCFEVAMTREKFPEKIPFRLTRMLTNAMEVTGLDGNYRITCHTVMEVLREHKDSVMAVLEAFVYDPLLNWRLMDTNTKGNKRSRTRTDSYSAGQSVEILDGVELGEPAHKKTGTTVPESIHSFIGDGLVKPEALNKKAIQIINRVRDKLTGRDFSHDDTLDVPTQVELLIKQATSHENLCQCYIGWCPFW
- test.method.notes: In vitro mTOR kinase assay (Test (a), AlphaScreen)
- experimental.setup: ATP 20 μM, read-out: Test (a): IC50 versus mTOR kinase
pIC50: −log10 of the molar value.
Outcome: true (1) for pIC50 of at least 7; false (0) for anything lower.

Examples with answers:
{"compound": "CNC(=O)Nc1ccc(-c2nc(CS(=O)(=O)c3ccccc3)cc(N3CCOC[C@@H]3C)n2)cc1 [Example 19a]", "answer.label": "true (1)"}
{"compound": "CCc1cccc(NC(=O)Nc2ccc(-c3nc(CS(C)(=O)=O)cc(N4CCOCC4)n3)cc2)c1 [Example 7o]", "answer.label": "false (0)"}

input: Check if pIC50 >= 7 (inclusive). Item: C[C@H]1COCCN1c1cc(CS(C)(=O)=O)nc(-c2ccc(NC(=O)N3CCC3)c(F)c2)n1 [Example 4a]
output: false (0)

input: How about CN1CCN(CCNC(=O)Nc2ccc(-c3nc(CS(C)(=O)=O)cc(N4CCOCC4)n3)cc2)CC1 [Example 45w] ?
output: false (0)

input: Could you do the same for COCCN(C)C(=O)Nc1ccc(-c2nc(CS(C)(=O)=O)cc(N3CCOC[C@@H]3C)n2)cc1 [Example 2a] , please?
output: false (0)

input: Let us now turn to CNC(=O)Nc1ccc(-c2nc(CS(C)(=O)=O)cc(N3CCOC[C@@H]3C)n2)cc1F [Example 2e]
output: true (1)

input: Same read-out for CC(C)S(=O)(=O)Cc1cc(N2CCOC[C@@H]2C)nc(-c2ccc(NC(=O)Nc3ccccc3)cc2)n1 [Example 9] ?
output: false (0)

* * *

- system.under.test: recombinant mTOR (FLAG-tagged, residues 1362-2549) (Homo sapiens)
- test.method.notes: In vitro mTOR kinase assay (Test (a), AlphaScreen)
- experimental.setup: ATP 20 μM, read-out: Test (a): IC50 versus mTOR kinase
Can you tell me IC50 for the items I'm about to list?

These solved cases illustrate the format of a correct answer.
{"compound": "C[C@H]1COCCN1c1cc(CN2CCCN(C)CC2)nc(-c2ccc(NC(=O)NC3CC3)cc2)n1 [Example 49h]", "system.under.test": "recombinant mTOR (FLAG-tagged, residues 1362-2549) (Homo sapiens)", "IC50": "180 nM"}
{"compound": "CCNC(=O)Nc1ccc(-c2nc(CO)cc(N3CCOC[C@@H]3C)n2)cc1 [Example 5]", "system.under.test": "recombinant mTOR (FLAG-tagged, residues 1362-2549) (Homo sapiens)", "IC50": "63 nM"}
{"compound": "CCNC(=O)Nc1ccn(-c2nc(CS(C)(=O)=O)cc(N3CCOC[C@@H]3C)n2)n1 [Example 24l]", "system.under.test": "recombinant mTOR (FLAG-tagged, residues 1362-2549) (Homo sapiens)", "IC50": "840 nM"}

Now take the following compound into account.
input: Record request: IC50 value, item C[C@H]1COCCN1c1cc(C(C)(C)S(C)(=O)=O)nc(-c2cnc(NC(=O)Nc3cnn(C)c3)s2)n1 [Example 47b]
output: 410 nM

* * *

Assign log10(IC50) to each entry below.
- system.under.test: recombinant mTOR (FLAG-tagged, residues 1362-2549) (Homo sapiens, UniProt P42345)
- test.method.notes: In vitro mTOR kinase assay (Test (a), AlphaScreen)
- experimental.setup: ATP 20 μM, read-out: Test (a): IC50 versus mTOR kinase
Heads up: the numbers are on a log10 scale; they represent IC50 in nM.

Worked cases, answers included:
{"molecule": "C[C@H]1COCCN1c1cc(C(C)(C)S(C)(=O)=O)nc(-c2cnc(NC(=O)NCc3cnn(C)c3)s2)n1 [Example 47c]", "log10(IC50)": 3.15}
{"molecule": "C[C@H]1COCCN1c1cc(C(=O)NC2CC2)nc(-c2ccc(NC(=O)NC3CC3)cc2)n1 [Example 36a]", "log10(IC50)": 3.46}
{"molecule": "CCNC(=O)Nc1ccc(-c2nc(CS(=O)(=O)c3ccccc3)cc(N3CCOCC3)n2)cc1 [Example 20a]", "log10(IC50)": 2.18}

Go through the items and report each one's log10(IC50).
1. CC(=O)NCCS(=O)(=O)Cc1cc(N2CCOC[C@@H]2C)nc(-c2ccc(NC(=O)NC3CC3)cc2)n1 [Example 43j]
2. C[C@H]1COCCN1c1cc(CS(C)(=O)=O)nc(-c2ccc(NC(=O)Nc3ncccn3)cc2)n1 [Example 22a]
3. CNC(=O)Nc1ccc(-c2nc(CS(C)(=O)=O)cc(N3CCOC[C@@H]3C)n2)cc1
4. C[C@H]1COCCN1c1cc(CS(=O)(=O)C2CCNC2=O)nc(-c2ccc(NC(=O)Nc3ccccc3)cc2)n1 (some centres unmarked)
5. CCNC(=O)Nc1ccc(-c2nc(N3CCOCC3)cc(C(C)(C)S(C)(=O)=O)n2)cc1 [Example 21a]

output:
1. 3.26
2. 1.78
3. 0.83
4. 2.75
5. 2.86
